Origin of the recorded values: ChEMBL document CHEMBL1961873

studyTarget: Serine/threonine-protein kinase Nek7 (Homo sapiens) (UniProt Q8TDX7);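 also: reported values are mean inhibition of NEK7 from the GSK PKIS kinase screening panel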
Sequence (Q8TDX7 whole entry, looked up): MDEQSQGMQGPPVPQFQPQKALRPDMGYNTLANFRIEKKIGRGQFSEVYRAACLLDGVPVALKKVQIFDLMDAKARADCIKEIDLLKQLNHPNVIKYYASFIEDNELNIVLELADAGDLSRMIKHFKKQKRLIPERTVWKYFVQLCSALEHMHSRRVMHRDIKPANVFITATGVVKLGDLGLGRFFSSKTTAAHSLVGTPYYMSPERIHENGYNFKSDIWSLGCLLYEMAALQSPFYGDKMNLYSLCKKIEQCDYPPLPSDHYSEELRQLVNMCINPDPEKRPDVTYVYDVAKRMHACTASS
protocolConditions: at 1 µM
For each record, write down the corresponding inhibition.
Your answer should be a number followed by the unit of measure.

Task item: Item `FC(F)(F)c1cccc(Nc2nccc(-c3cnn4nc(-c5ccccc5)ccc34)n2)c1` has what recorded inhibition?
Reply: 1.88%

Task item: Request: `O=C1NC(=O)C(c2cccc(Cl)c2)=C1Nc1ccc(Cl)c(C(=O)O)c1`
Reply: 1.25%

Task item: Request: `O=C(Nc1n[nH]c2nc(-c3ccc(O)cc3)c(Br)cc12)C1CC1`
Reply: 46.3%

Task item: Request: COc1ccc2cc(-c3c(-c4ccncc4)nc(-c4ccc([S+](C)[O-])cc4C)n3C)ccc2c1 (centres undefined)
Reply: 0.01%
